# system: human KLB and human FGFR1c co-expressed on HEK293/hKLB/hFGFR1c/SRE-luc cells (human, UniProt Q86Z14 1-1044; P11362 22-822)
# Sequence (Q86Z14 whole entry, chain 1 of 2): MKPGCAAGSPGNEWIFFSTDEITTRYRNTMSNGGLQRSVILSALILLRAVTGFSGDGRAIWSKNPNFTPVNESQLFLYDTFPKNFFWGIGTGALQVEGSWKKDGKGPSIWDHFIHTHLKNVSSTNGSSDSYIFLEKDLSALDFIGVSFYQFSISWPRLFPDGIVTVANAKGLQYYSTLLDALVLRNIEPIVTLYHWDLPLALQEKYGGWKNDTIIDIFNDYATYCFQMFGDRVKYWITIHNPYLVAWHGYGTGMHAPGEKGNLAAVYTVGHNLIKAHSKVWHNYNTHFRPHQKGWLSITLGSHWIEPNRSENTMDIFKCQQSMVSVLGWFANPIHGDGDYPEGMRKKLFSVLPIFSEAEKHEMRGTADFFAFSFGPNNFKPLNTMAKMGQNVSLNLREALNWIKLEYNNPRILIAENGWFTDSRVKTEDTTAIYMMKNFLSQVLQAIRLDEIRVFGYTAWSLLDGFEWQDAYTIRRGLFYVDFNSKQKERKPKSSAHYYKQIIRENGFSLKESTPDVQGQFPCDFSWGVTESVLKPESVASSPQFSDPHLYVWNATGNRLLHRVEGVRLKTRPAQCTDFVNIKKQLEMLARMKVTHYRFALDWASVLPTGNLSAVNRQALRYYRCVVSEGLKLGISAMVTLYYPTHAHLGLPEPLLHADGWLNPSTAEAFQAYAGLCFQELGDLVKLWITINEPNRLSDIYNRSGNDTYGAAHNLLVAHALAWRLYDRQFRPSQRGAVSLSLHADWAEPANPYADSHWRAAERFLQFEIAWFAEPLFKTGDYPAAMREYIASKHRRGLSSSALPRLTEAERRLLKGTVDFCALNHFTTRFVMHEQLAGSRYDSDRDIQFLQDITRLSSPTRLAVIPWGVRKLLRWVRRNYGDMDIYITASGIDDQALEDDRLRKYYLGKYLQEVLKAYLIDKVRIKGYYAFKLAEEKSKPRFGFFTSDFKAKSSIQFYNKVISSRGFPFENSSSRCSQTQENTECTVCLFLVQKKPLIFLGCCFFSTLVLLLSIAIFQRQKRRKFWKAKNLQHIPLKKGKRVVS
# Sequence (P11362 other isoform, or with tags, fused parts or gaps limits assumed, chain 2 of 2): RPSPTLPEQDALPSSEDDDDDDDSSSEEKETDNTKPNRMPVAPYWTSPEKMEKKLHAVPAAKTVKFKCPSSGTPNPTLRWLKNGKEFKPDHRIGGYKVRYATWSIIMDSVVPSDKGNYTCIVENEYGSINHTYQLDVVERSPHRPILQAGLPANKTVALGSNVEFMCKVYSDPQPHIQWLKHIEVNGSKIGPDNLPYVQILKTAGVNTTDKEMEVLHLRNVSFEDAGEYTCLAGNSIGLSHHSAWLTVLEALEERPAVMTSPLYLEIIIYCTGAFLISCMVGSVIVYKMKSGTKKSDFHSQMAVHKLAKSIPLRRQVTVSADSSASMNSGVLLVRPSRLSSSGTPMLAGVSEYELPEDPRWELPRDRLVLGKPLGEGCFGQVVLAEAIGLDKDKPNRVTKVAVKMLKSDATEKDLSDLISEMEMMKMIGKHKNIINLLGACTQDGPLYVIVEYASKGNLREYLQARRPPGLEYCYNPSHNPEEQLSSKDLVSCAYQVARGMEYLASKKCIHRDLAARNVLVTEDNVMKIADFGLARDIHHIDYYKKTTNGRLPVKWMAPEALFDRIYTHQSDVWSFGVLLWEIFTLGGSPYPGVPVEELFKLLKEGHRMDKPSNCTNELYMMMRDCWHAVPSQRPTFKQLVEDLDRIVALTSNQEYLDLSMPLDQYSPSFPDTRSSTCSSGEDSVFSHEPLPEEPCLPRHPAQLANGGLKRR
# assay: cell-based or functional assay
# strict inequality: Maximum Inhibition (%) of 1 nM hFGF21 < 50% yields t, everything else yields f

binder	group
H2aM8091N (antibody, V domains shown, mouse IgG2 Fc (H2aM prefix); also called H2M8091N) VH: QVQLVQSGADMKKPGASVKVSCKASGYTFTTYGINWVRQAPGQGLEWMGWISAYSGITNYAQSFQGRVTMTTDTSTSTAYMELRSLRSDDTAVYYCARGGYNWATGDYFDYWGQGTLVTVSS VL: DIQMTQSPSTLSASIGDRVTITCRASQSISSWLAWYQQKPGKAPKFLIYKASSLASGVPSRFSGSGSGTEFTLTISSLQPDDFATYYCQQYDSYSPYTFGQGTKVEIK	f
H2aM8109N (antibody, V domains shown, mouse IgG2 Fc (H2aM prefix)) VH: QVQVVESGGGVVQPGRSLRLSCAASGFTFSSYGLHWVRQAPGKGLEWVAVIWHDGSHKYYADSVKGRFTISRDNSKNTLYLQMNSLRAEDTAVYYCARDGIPVAEDYYFYGMDVWGQGTTVTVSS VL: DIQMTQSPSSLSASVGDRVTITCRASQGIRNDLGWYQQKPGKAPKRLIYAASSLQSGVPSRFSGSGSGTEFTLTISSLQPEDFAIYYCLQHNSLTFGGGTKVEIK	t
H4H8852P (antibody, V domains shown, human IgG4 Fc (H4H prefix)) VH: QVQLQESGPGLVKPSETLSLTCTVSGGSISSYYWSWIRQPPGKGLEWIGYIYSSGIIKYNPSLKSRVTISADTSKNQFSLKLSSVTAADTAVYYCARHGIFGVMEYFQRWGQGTLVTVSS VL: DIQMTQSPSSLSASIGDRVTITCQASQDIGNFLNWYQQKPGKAPTLLIYDASNMETGVPSRFSGSGSGTYFTFTISSLQPEDVATYYCQQYDNLPLTFGGGTKVEIK	f
H4H8880P (antibody, V domains shown, human IgG4 Fc (H4H prefix)) VH: EVQLVESGGGVVQPGGSLRLSCAASGFTFSLYAMSWVRQAPGKGLEWVSAISGSAHGAYYADSVKGRFTISRDNSKNSLYLQMNSLRAEDTAIYYCAKDLVIAVAGTFDYWGQGTLVTVSS VL: DIQMTQSPSSLSASVGDRVTITCRASQIISTYLNWYQQKPGKAPKILIYTASSLKSGVPSRFSGSGSGTDFTLTISSLQPEDFATYYCQQTYSSPRFTFGPGTKVDIK	t
H4H8856P (antibody, V domains shown, human IgG4 Fc (H4H prefix)) VH: QVQLQESGPGLVKPSETLSLTCTVSGGSISSYYWSWIRQPPGKGLEWIAYIYYSGITKYNPSLKSRVTISADTSKNQFSLKLSSVTAADTAVYYCARHGIFGVMEYFQRWGQGTLVTVSS VL: DIQMTQSPSSLSASIGDRVTITCQASQDISNFLNWYQQKPGKAPTLLIYDVSNMETGVPSRFSGSGYGTDFTLTISSLKPEDIATYYCQQYDNIPLTFGGGTKVEIK	f
H4H8878P (antibody, V domains shown, human IgG4 Fc (H4H prefix)) VH: QVQLVESGGGVVQPGRSLRLSCAASGFTLNTYGMHWIRQTPGKGLEWVSLISYDETKEYYVDSVKGRFTISRDNSKNTLYLQMNSVRVEDTAVYYCAKPLTGSTDYYYGLDVWGQGTTVTVSS VL: DIQMTQSPSYVSASVGDRVIITCRASQDISSWLAWYQQKPGKAPKLLIYVTSSLESGVPSRFSGSGSGTDFTLTISGLQPEDFATYYCQQVKSFPPTFGPGTKVDIK	t
H1H8900P (antibody, V domains shown, H1H Fc prefix (human Fc)) VH: QVQLVESGGGVVQPGRSLRLSCVASGFTFSSYGMHWVRQAPGKGLEWVAVISFDGSNKYYADSVKGRFTISRDNSKNTLYLQMNSLRPADTAVYYCAKDRSNYYYFGMDVWGQGTTVTVSS VL: DIVMTQTPLSLPVTPGEPASISCRSSQSLLDSDDGNTYLDWYLQKPGQSPQLLIYTLSYRASGVPDRFSGSGSGTDFTLKISRVEAEDVGVYYCMQRIEFPLTFGGGTKVEIK	t
